Reference source: patent US20160221989A1

# SYSTEM: TRKA (Homo sapiens, UniProt P04629)
# Construct: aa 441-; 4 nM; 40 uM; 35 min; (NTRK1); 796; His
# Sequence (P04629 441-796): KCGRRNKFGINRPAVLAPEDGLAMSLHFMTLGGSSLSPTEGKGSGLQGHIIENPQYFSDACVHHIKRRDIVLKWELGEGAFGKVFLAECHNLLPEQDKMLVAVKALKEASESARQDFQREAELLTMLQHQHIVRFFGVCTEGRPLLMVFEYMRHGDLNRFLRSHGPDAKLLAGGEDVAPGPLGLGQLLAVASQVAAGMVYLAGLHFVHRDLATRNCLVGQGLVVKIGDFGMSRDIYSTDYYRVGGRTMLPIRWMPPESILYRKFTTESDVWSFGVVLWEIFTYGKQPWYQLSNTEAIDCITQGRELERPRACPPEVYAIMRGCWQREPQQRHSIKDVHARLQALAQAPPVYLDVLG
# ASSAY_TEXT: Isolated TRK enzyme assay (HTRF KinEASE-TK kit, PV3144 TrkA enzyme assay)
# CONDITION_PARAMETERS: recombinant His-tagged cytoplasmic domain aa 441-796, 4 nM enzyme, 40 uM ATP, 35 min, arithmetic mean where more than one reading
ASSAY_METRIC: pIC50
Lab note — pIC50 values are minus log10 of concentrations in M.

Completed entries (count: 5):
In [3]: df
Out[3]:
                                   compound  assay_metric  quantitative_readout
0  NC(=O)c1cnc(N)c(COC2CN(C(=O)Cc3ccc(OC(F)(F)F)cc3)CC2(F)F)c1 (single isomer, unassigned) [Example 5]         pIC50                  7.97
1  CNC(=O)c1cnc(N)c(O[C@H]2CN(C(=O)Cc3ccc(OC(F)(F)F)cc3)CC2(C)C)c1         pIC50                  7.91
2  CNC(=O)c1cnc(N)c(OCC2CN(C(=O)Cc3ccc(OC(F)(F)F)cc3)CC2(F)F)c1 (single isomer, unassigned) [Example 11]         pIC50                  7.94
3  CNC(=O)c1cnc(N)c(O[C@H]2CN(C(=O)Cc3ccc(OC(F)(F)F)cc3)C[C@@H]2C)c1         pIC50                  6.98
4  C[C@H]1CN(C(=O)Cc2ccc(OC(F)(F)F)cc2)C[C@@H]1Oc1cc(C(=O)NCC(C)(C)O)cnc1N         pIC50                  5.68

Asked: So what's the measured pIC50 for this one? CC(C)(O)CNC(=O)c1cnc(N)c(OC2CN(C(=O)Cc3ccc(OC(F)(F)F)cc3)CC2(F)F)c1 (racemic)
Given back: 5.06

Asked: Okay, and CNC(=O)c1cnc(N)c(OC2CN(C(=O)Cc3ccc(OC(F)(F)F)cc3)CC2(C)OC)c1 (racemic) ?
Given back: 7.26

----------
# SYSTEM: TRKA (Homo sapiens, UniProt P04629)
# Construct: aa 441-; 4 nM; 40 uM; 35 min; (NTRK1); 796; His
# ASSAY_TEXT: Isolated TRK enzyme assay (HTRF KinEASE-TK kit, PV3144 TrkA enzyme assay)
# CONDITION_PARAMETERS: recombinant His-tagged cytoplasmic domain aa 441-796, 4 nM enzyme, 40 uM ATP, 35 min, arithmetic mean where more than one reading
# Method: Isolated TRK Enzyme assays use the HTRF KinEASE-TK kit (Cisbio Cat#62TKOPEJ) with recombinant His-tagged cytoplasmic domains of TRKA receptor sourced from Invitrogen (see table below). […] After the Detection Reagent addition, plates are covered and incubated at room temperature for 60 minutes. HTRF signal is read using an Envision reader, measured as a ratio of emissions at two different wavelengths, 620 nm and 665 nm. […] Where more than one reading was taken, the arithmetic mean is presented.
molecules and their reported IC50
Value expressed in nM; do not type the unit.

Field: example entries. Status: answers known.
                                   molecule                               system  unit_descriptor  quantitative_readout
0  CNC(=O)c1cnc(N)c(OC2CN(C(=O)Cc3ccc(OC(F)(F)F)cc3)CC23CC3)c1 (stereo not drawn)  TRKA (Homo sapiens, UniProt P04629)               nM                  72.4
1  NC(=O)c1cnc(N)c(OC2CN(C(=O)Cc3ccc(OC(F)(F)F)cc3)CC23CC3)c1 (stereo not drawn)  TRKA (Homo sapiens, UniProt P04629)               nM                   110

Read the next record carefully.
Asked: Quick one: IC50 for NC(=O)c1cnc(N)c(COC2CN(C(=O)Cc3ccc(OC(F)(F)F)cc3)CC2(F)F)c1 (single isomer, unassigned) [Example 6] ?
Given back: 630
